Assay: yeast display, Sf9 membrane polyspecificity reagent, FACS + sequencing; frameworks hold sequencing errors

- Sequence Data: "QVQLEESGGGLVQAGGSLRLSCAACGSIFDNYAMGWYRQAPGKERELVAVISKRGGRTYYADSVKGRFTISRDNAKNTVYLQMNSLKPEDTAVYYCANGGQGSTPTSAWAKYDYWVQGTQVTVSS"
  polyreactivity (PSR sort gate): "high polyreactivity"
- Sequence Data: "QVQLVESGGGLVQAGGSLRLSCAASGFTFRYNAMGWYRQAPGKERELVAAISRSGGRTYYADSVKGRFTIARDNAKNTVYLQMNSLKPEDTAVYYCAAVAARITGFGYWGQGTQVTVSS"
  polyreactivity (PSR sort gate): "high polyreactivity"
- Sequence Data: "QVQLVESVGGLVQAGGSLRLSCAASGSTFGIYTMGWYRQAPGKERELVAAISSRGGSTYYADSVKGRFTISRDNAKNTVYLQMNSLKPEDTAVYYCAAVGRSHSRPYTDEYWGQGTQVTVSS"
  polyreactivity (PSR sort gate): "high polyreactivity"
- Sequence Data: "QVQLVESGGGLVPAGGSLRLTCAASGSTFGDYAMGWYRQAPGKERELVAAINFSDGSTYYADSVKGRFTISRDNAKNTVYLQMNSLKPEDTAVYYCAAYTYYDGVYGFDYWGQGTQVTVSS"
  polyreactivity (PSR sort gate): "low polyreactivity"
- Sequence Data: "QVQLVESGGGLVQAGGSLRLSCAASGRIFTRYAMGWYRQAPGKERELVAAISRGGARTYYADSVKGRFTISRDNAKNTVYLQMNSLKPEDTAVYYCARQRVKTDRISGYDYWGQGTQVTVSS"
  polyreactivity (PSR sort gate): "high polyreactivity"
- Sequence Data: "QVQLVESGGRLVQAGGSLLLSSAASGRTFGIYAMGWSRQSPGKERELCAAITWSGDSTYYADSVKGRFTISRDNAKNTVYIQMNSLKPEDTAVYYCAADYVGLTSVRYDYWGQGTQVTVSS"
  polyreactivity (PSR sort gate): "low polyreactivity"
- Sequence Data: "QVHLVESGGGLVQAGGSLRLSCAASGIIFGVYAMGWYRQATGKESELVAAIDGNGSSTYYADSVKGRFTISRDNAKNTVFLQMNSLKPEDTAVYYCAAGYWSYLYYWYDFDYWGQGTQVTVSS"
  polyreactivity (PSR sort gate): "low polyreactivity"
- Sequence Data: "QVQLVESGGGVVQAGGSLRLSCAASGRTFQFNAMGWYRQAPGKERELVATIDDPSGGTYYADSVKGRFTISRDNAKNTVYLQMNSLKPEDTAVYYCAADRWDSRYETYRYDYWGQGTQVTVSS"
  polyreactivity (PSR sort gate): "low polyreactivity"
- Sequence Data: "QVQLVESGGGLVQAGGSLRLSCAASGSIRYYAMGWYIQAPGKERELVAAISSRGTNTYYADSVKGRFTISRDNAKNTVYLQMNSLKPEDTAVYYCNAVVGLGYNYWGQGTQVTVSS"
  polyreactivity (PSR sort gate): "high polyreactivity"
- Sequence Data: "QVQLVESGGGLVQAGGSLRLSCAASGFIFYYAMGWYRQAPVKERELVAAISRGGSTNYADSVKGRFTISRDNAKNTVYLQMNSLKPEDTAVYYCNARVYSSRARWGTYDYWGQGTQVTVSS"
  polyreactivity (PSR sort gate): "high polyreactivity"
- Sequence Data: "QVQLVESGGGLVQAGGSLRLSCAASGLILVPNTMGWYRQAPGKERELVAAISYSGGGTYYADSVKGRFTISRDNANNTVYLQMNSLKPEDTAVYYCAAYVKRESAPYGYWGQGTLVTVSS"
  polyreactivity (PSR sort gate): "low polyreactivity"

----------
Test: yeast display, Sf9 membrane polyspecificity reagent, FACS + sequencing; frameworks hold sequencing errors

- Sequence Data: "QVQLVESGGGLVQEGGSLRLSCAASGITFLQYAMGWYRQAPGKERELVAVISRGSRTYYADSVKGRFTISRDNAKNTVYLQMNCLQPDDTAVYYCAAVRGLALGYDYWGQGTQVTVSS"
  polyreactivity (PSR sort gate): "high polyreactivity"
- Sequence Data: "QVQLVESGGGLVQAGGSLRLSCAASGYIFHDNAMGWYRQAPGKERELVAGITTGGSTYYADSVKGRFTISRDNAKYTVYLQMNSLKPEDTAVYYCAAKVWSRSFYKYYYWGQGTQVTVSS"
  polyreactivity (PSR sort gate): "high polyreactivity"
- Sequence Data: "QVQLVESGGGLVQAGGSLRLSCAASGGIFWRYAMGWYRQAPGKERELVAAISSRGGSTYYADSVKGRFTISRDNAKNTVYLPMNSLKPEYTAVYYCAAAFLSRVQGYDSWGQGTQVTVSS"
  polyreactivity (PSR sort gate): "high polyreactivity"
- Sequence Data: "QVQLVESGGGLVQAGGSLRLSCAASGRIFWYYAMGWYRQAPGKERELVAAISWSGGTTYYADSVKGRFTISRDNAKNTVYLQMNSLKPEDTAVYYCAAVFQYGYGEDYWGQGTQVTVSS"
  polyreactivity (PSR sort gate): "high polyreactivity"

----------
Assay: yeast display, Sf9 membrane polyspecificity reagent, FACS + sequencing; frameworks hold sequencing errors
Quantity Name: polyreactivity (PSR sort gate)

- Sequence Data: "QVQLVESGGGLVQAGGSLRLSCAASGRIFFPYDMGWYRQAPGKERELVAAITNSGGRTYYADSVKGRFTISRDNAKNTVYLQMNSLKPEDTAVYYCNADAYEFRWVKHYDYWGQGTQVTVSS"
  Quantity Name: "polyreactivity (PSR sort gate)"
  Value Observed: "low polyreactivity"
- Sequence Data: "QVQLVESGGGLVQAGGSLRLSCAASGITFGYYDMGWYRQAPGKERELVAAISRGGGRTYYADSVKGRFTISRDNAKNTVYLQMNSLKPEDSAVYYCAAPSRYGGRGRPTLYDYWGQGTQVTVSS"
  Quantity Name: "polyreactivity (PSR sort gate)"
  Value Observed: "high polyreactivity"
- Sequence Data: "QVHLVESGGGLVQAGGSLRLSCAASGRIIGKYAMGWYRQPPGKERELVAAITWSGGNTYYADSVKGRFTISRDNAKNTVYLQMNSLKPEDTAVYYCAASVPGKSHKDGYWGQGSQVTVSS"
  Quantity Name: "polyreactivity (PSR sort gate)"
  Value Observed: "high polyreactivity"
- Sequence Data: "QVQLQESGGDLEQAGGSLRLSCTASGTISDVRVMGWSRQAPGKERELVATISYVTITYYADSVKGRFTISRDSEKHRVSADDEPETGRYRGVLFRYYWGLGTQVTVSS"
  Quantity Name: "polyreactivity (PSR sort gate)"
  Value Observed: "low polyreactivity"
- Sequence Data: "QVQLVESGGGLVQAGGSLRLSCAASGRIFIYNAMGWYRQAPGKEREFVAAISSSGGSTYYADSVKGRFTISRDNAKNTVYLQMNSLKPEDTAVYYCAAGGWPYSGGWFFQPNYDYWGQGTQVTVSS"
  Quantity Name: "polyreactivity (PSR sort gate)"
  Value Observed: "low polyreactivity"

----------
Test: yeast display, Sf9 membrane polyspecificity reagent, FACS + sequencing; frameworks hold sequencing errors
Quantity Name: polyreactivity (PSR sort gate)

- Sequence Data: "QVQLQESVGGLVQAGGSLRLSCAASGYISSWYPMGWYRQAPGKEREFVATIAPVATTYYADSVKGRFTISRDYAKNSVYLQMNSLKPEDTAVYYCAAGPENNDFYSYWGQGTQVTVSS"
  Value Observed: "low polyreactivity"
- Sequence Data: "QVQLVESGGGLVQAGGSLRLSCAASGRTLKRNAMGWYRQAPGKERELVAAISFRVTNTYYADSVKGRFTISRDNAKNTVYLQMNSLKPEDTAVYYCAVPDSRFYSPRRVSPHDYWGQGTQVTVSS"
  Value Observed: "high polyreactivity"
- Sequence Data: "QVQLVESGGGLVQAGGSLRLTCAASGSTFDTYAMGWYRQAPGKERELVAAISGSGVRTYYADSVKGRFTISRDNAKNTVYLQMNSLKPEDTAVYYCAARYPRRCGEYGYWGQGTQVTVSS"
  Value Observed: "high polyreactivity"
- Sequence Data: "QVQLVESGGGLVQAGGTLRLSGAASGFIFPQYAMGWYRQAPGKERELVAAISTGGGSTYYADSVKGRFTISRDNAKNTVYLQMNSLKPEDTAVYYCNARPKYDSGHYYWGQGTQVTVSS"
  Value Observed: "high polyreactivity"
- Sequence Data: "QVQLVESGGGLFQAGGSLRLSCAASGSILTHYAMGWYRQAPGKERELVAGNTSGGTTNYADSVKGRFTISRDNAKNSVYLQMNSLKPEDTAVYYCNADVWICQRFETGYDFDYWGQGTQVTVSS"
  Value Observed: "low polyreactivity"
- Sequence Data: "QVQLVESGGGLVQAGGSLRLSCAASGRIFYRNAMGWYRPAPGKERELVAAISGSGGSTSYADSVKGRFTISRDNAKNTVYLQMNSLKPEDTAVYYCAAYKLYWGQGTQVTVSS"
  Value Observed: "high polyreactivity"
- Sequence Data: "QVQLVESGGGLVQAGGSLRLSCAASGIIFYQYAMGWYRQAHGKERELVAAISSRGGSTYYADSVKGRFTISLDNAKNTVYLLMNSLKPEDTAVYYCAAGSTGSTDGYWGQGTQVTVSS"
  Value Observed: "high polyreactivity"
- Sequence Data: "QVQLVESGGGLVQAGGSLRLSCAASGSIFDVYAMGWYRLAPGKERELVAAINWTGGSTYYADSVKGRFTISRDNAKNTVYLQMNSLKPEDTAVYYCAASYYYGTEHYDYWGQGTQVTVSS"
  Value Observed: "low polyreactivity"
- Sequence Data: "QVQLVESGGGLVQAGGSLRLSCAASGSIFRGYAMGWYRQAPGKERELVAAISIGGRTYYADSVKGRFTISRDNAKNTVYLQMNSLKPEDTAVYYCAVQKPKTGKGKKDTYGRDGYWGQGTQVTVSS"
  Value Observed: "high polyreactivity"
- Sequence Data: "QVQHVESGGGLVQAGGSLRLSCAASGRTFFSYAMGLYRHAPGKERELVAAITYSGGRTYYADSVKGRFTISRDNAKNTVYLQMNSLKPEDTAVYYCAATHYREKIDYWGQGTQVTVSS"
  Value Observed: "low polyreactivity"
- Sequence Data: "QVQLVESGGGLVQAGGSLRLSCAASGSIFVYYAMRWYRQAPGKERELVAAITIGASTDYADSVKGRFTISRDNAKNTVYLQMNSLKPEDTAVYYCAADLYYGDYRTLPKPDEYDYWGQGTQVTVSS"
  Value Observed: "low polyreactivity"
